# Test system: OVKATE (Ovarian Carcinoma)
# PROCEDURE_DETAILS: combination Emax (second highest fraction inhibited in the dose matrix, 72 h); higher = more inhibition; extreme values may be limits of the assay
Each entry gets rule not met if its combination Emax stays under 0.3, and rule met if its combination Emax is 0.3 or above.

{"COMPOUND": "O=C(c1cc(Cc2n[nH]c(=O)c3ccccc23)ccc1F)N1CCN(C(=O)C2CC2)CC1 [Olaparib] + COc1nnc2ccc(N3CCC(c4ccc(OCCN5CCN(C)C(=O)[C@H]5C)cc4)CC3)nn12 [AZD5153] (first compound max 10 µM, 7x7, partner max 1 µM)", "DISCRETE_LABEL": "rule not met"}
{"COMPOUND": "CC(=O)c1c(C)c2cnc(Nc3ccc(N4CCNCC4)cn3)nc2n(C2CCCC2)c1=O [Palbociclib] + Cc1c2c(nn1C)CSCc1cc(n(C)n1)CSc1cc(c3ccccc3c1)OCCCc1c(C(=O)O)n(C)c3c-2c(Cl)ccc13 [AZD5991] (first compound max 10 µM, 7x7, partner max 1 µM)", "DISCRETE_LABEL": "rule not met"}
{"COMPOUND": "COc1cccc(OCCCN)c1-c1cc(Nc2cnc(C#N)cn2)n[nH]1 [Prexasertib] + O=C(c1cc(Cc2n[nH]c(=O)c3ccccc23)ccc1F)N1CCN(C(=O)C2CC2)CC1 [Olaparib] (first compound max 1 µM, 7x7, partner max 10 µM)", "DISCRETE_LABEL": "rule met"}
{"COMPOUND": "CN(CCO)CC[C@H](CSc1ccccc1)Nc1ccc(S(=O)(=O)NC(=O)c2ccc(N3CCC([C@@H](O)c4ccccc4-c4ccc(Cl)cc4)CC3)cc2)cc1S(=O)(=O)C(F)(F)F [AZD4320] + C[C@@H](Nc1cc(F)cc(F)c1)c1cc(C(=O)N(C)C)cc2c(=O)cc(N3CCOCC3)oc12 [AZD8186] (first compound max 1 µM, 7x7, partner max 3 µM)", "DISCRETE_LABEL": "rule met"}
{"COMPOUND": "Cc1cc2ncnn2cc1Nc1ncc2c(n1)n(C1CCOCC1)c(=O)n2C [AZD7648] + COc1cc([C@@H]2c3cc4c(cc3[C@@H](O[C@@H]3O[C@@H]5CO[C@@H](C)O[C@H]5[C@H](O)[C@H]3O)[C@H]3COC(=O)[C@H]23)OCO4)cc(OC)c1O [Etoposide] (first compound max 10 µM, 7x7, partner max 10 µM)", "DISCRETE_LABEL": "rule not met"}
{"COMPOUND": "COc1cc2ncnc(Nc3ccc(F)c(Cl)c3)c2cc1OCCCN1CCOCC1 [Gefitinib] + CC(C)n1c(=O)n(C)c2cnc3cc(F)c(-c4ccc(OCCCN5CCCCC5)nc4)cc3c21 [AZD1390] (first compound max 10 µM, 7x7, partner max 0.3 µM)", "DISCRETE_LABEL": "rule not met"}
{"COMPOUND": "C=CCn1c(=O)c2cnc(Nc3ccc(N4CCN(C)CC4)cc3)nc2n1-c1cccc(C(C)(C)O)n1 [AZD1775] + C1CN(CCC1(C(=O)N[C@@H](CCO)C2=CC=C(C=C2)Cl)N)C3=NC=NC4=C3C=CN4 [Capivasertib] (first compound max 3 µM, partner max 3 µM)", "DISCRETE_LABEL": "rule met"}

====

# Test system: SNU-1 (Gastric Carcinoma);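 note: after 72 h of two-drug dosing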
# PROCEDURE_DETAILS: Bliss excess, mean over the matrix (fraction); higher = more synergy
Examples of molecules with documented Bliss excess follow.
MEASUREMENT_LABEL: Bliss excess

{"MOLECULE": "NC1(C(=O)N[C@@H](CCO)c2ccc(Cl)cc2)CCN(c2ncnc3[nH]ccc23)CC1 [Capivasertib] + Cn1cnc2c(F)c(Nc3ccc(Br)cc3Cl)c(C(=O)NOCCO)cc21 [Selumetinib] (first compound max 10 µM, 7x7, partner max 10 µM)", "TARGET_OR_SYSTEM": "SNU-1 (Gastric Carcinoma)", "VALUE_OBSERVED": 0.0764}
{"MOLECULE": "Cc1c2c(nn1C)CSCc1cc(n(C)n1)CSc1cc(c3ccccc3c1)OCCCc1c(C(=O)O)n(C)c3c-2c(Cl)ccc13 [AZD5991] + CN(C)CCCOc1ccc(-c2ccc3ncc4c(c3c2)n(C2CCOCC2)c(=O)n4C)cn1 [AZD0156] (first compound max 1 µM, 7x7, partner max 1 µM)", "TARGET_OR_SYSTEM": "SNU-1 (Gastric Carcinoma)", "VALUE_OBSERVED": -0.0144}
{"MOLECULE": "Cc1c2c(nn1C)CSCc1cc(n(C)n1)CSc1cc(c3ccccc3c1)OCCCc1c(C(=O)O)n(C)c3c-2c(Cl)ccc13 [AZD5991] + CCN(CCO)CCCOc1ccc2c(Nc3cc(CC(=O)Nc4cccc(F)c4)[nH]n3)ncnc2c1 [AZD2811] (first compound max 1 µM, 7x7, partner max 1 µM)", "TARGET_OR_SYSTEM": "SNU-1 (Gastric Carcinoma)", "VALUE_OBSERVED": 0.0586}
{"MOLECULE": "C=CCn1c(=O)c2cnc(Nc3ccc(N4CCN(C)CC4)cc3)nc2n1-c1cccc(C(C)(C)O)n1 [AZD1775] + O=C(c1cc(Cc2n[nH]c(=O)c3ccccc23)ccc1F)N1CCN(C(=O)C2CC2)CC1 [Olaparib] (first compound max 1 µM, partner max 10 µM)", "TARGET_OR_SYSTEM": "SNU-1 (Gastric Carcinoma)", "VALUE_OBSERVED": -0.0425}
{"MOLECULE": "CN(CCO)CC[C@H](CSc1ccccc1)Nc1ccc(S(=O)(=O)NC(=O)c2ccc(N3CCC([C@@H](O)c4ccccc4-c4ccc(Cl)cc4)CC3)cc2)cc1S(=O)(=O)C(F)(F)F [AZD4320] + Cn1cnc2c(F)c(Nc3ccc(Br)cc3Cl)c(C(=O)NOCCO)cc21 [Selumetinib] (first compound max 1 µM, 7x7, partner max 3 µM)", "TARGET_OR_SYSTEM": "SNU-1 (Gastric Carcinoma)", "VALUE_OBSERVED": 0.0212}
{"MOLECULE": "CCN(CCO)CCCOc1ccc2c(Nc3cc(CC(=O)Nc4cccc(F)c4)[nH]n3)ncnc2c1 [AZD2811] + O=C(c1cc(Cc2n[nH]c(=O)c3ccccc23)ccc1F)N1CCN(C(=O)C2CC2)CC1 [Olaparib] (first compound max 1 µM, 7x7, partner max 10 µM)", "TARGET_OR_SYSTEM": "SNU-1 (Gastric Carcinoma)", "VALUE_OBSERVED": 0.0233}
{"MOLECULE": "NC1(C(=O)N[C@@H](CCO)c2ccc(Cl)cc2)CCN(c2ncnc3[nH]ccc23)CC1 [Capivasertib] + CCN(CCO)CCCOc1ccc2c(Nc3cc(CC(=O)Nc4cccc(F)c4)[nH]n3)ncnc2c1 [AZD2811] (first compound max 10 µM, 7x7, partner max 1 µM)", "TARGET_OR_SYSTEM": "SNU-1 (Gastric Carcinoma)", "VALUE_OBSERVED": 0.0214}
{"MOLECULE": "COc1cccc(OCCCN)c1-c1cc(Nc2cnc(C#N)cn2)n[nH]1 [Prexasertib] + CN(C)CCCOc1ccc(-c2ccc3ncc4c(c3c2)n(C2CCOCC2)c(=O)n4C)cn1 [AZD0156] (first compound max 1 µM, 7x7, partner max 1 µM)", "TARGET_OR_SYSTEM": "SNU-1 (Gastric Carcinoma)", "VALUE_OBSERVED": -0.0201}
{"MOLECULE": "COc1nnc2ccc(N3CCC(c4ccc(OCCN5CCN(C)C(=O)[C@H]5C)cc4)CC3)nn12 [AZD5153] + C[C@@H]1COCCN1C2=NC(=NC(=C2)C3(CC3)[S@](=N)(=O)C)C4=C5C=CNC5=NC=C4 [AZD6738] (first compound max 1 µM, 7x7, partner max 10 µM)", "TARGET_OR_SYSTEM": "SNU-1 (Gastric Carcinoma)", "VALUE_OBSERVED": 0.0228}
{"MOLECULE": "COc1nnc2ccc(N3CCC(c4ccc(OCCN5CCN(C)C(=O)[C@H]5C)cc4)CC3)nn12 [AZD5153] + CCN(CCO)CCCOc1ccc2c(Nc3cc(CC(=O)Nc4cccc(F)c4)[nH]n3)ncnc2c1 [AZD2811] (first compound max 1 µM, 7x7, partner max 1 µM)", "TARGET_OR_SYSTEM": "SNU-1 (Gastric Carcinoma)", "VALUE_OBSERVED": 0.0024}
{"MOLECULE": "CC1(C)CCC(CN2CCN(c3ccc(C(=O)NS(=O)(=O)c4ccc(NCC5CCOCC5)c([N+](=O)[O-])c4)c(Oc4cnc5[nH]ccc5c4)c3)CC2)=C(c2ccc(Cl)cc2)C1 [Venetoclax] + C[C@@H](Nc1cc(F)cc(F)c1)c1cc(C(=O)N(C)C)cc2c(=O)cc(N3CCOCC3)oc12 [AZD8186] (first compound max 1 µM, 7x7, partner max 3 µM)", "TARGET_OR_SYSTEM": "SNU-1 (Gastric Carcinoma)", "VALUE_OBSERVED": -0.0157}
{"MOLECULE": "C[C@@H]1COCCN1c1cc(C2([S@](C)(=N)=O)CC2)nc(-c2ccnc3[nH]ccc23)n1 [AZD6738] + O=C(c1cc(Cc2n[nH]c(=O)c3ccccc23)ccc1F)N1CCN(C(=O)C2CC2)CC1 [Olaparib] (first compound max 10 µM, 7x7, partner max 10 µM)", "TARGET_OR_SYSTEM": "SNU-1 (Gastric Carcinoma)", "VALUE_OBSERVED": -0.0358}
{"MOLECULE": "CC1(C)CCC(CN2CCN(c3ccc(C(=O)NS(=O)(=O)c4ccc(NCC5CCOCC5)c([N+](=O)[O-])c4)c(Oc4cnc5[nH]ccc5c4)c3)CC2)=C(c2ccc(Cl)cc2)C1 [Venetoclax] + Cc1cc2ncnn2cc1Nc1ncc2c(n1)n(C1CCOCC1)c(=O)n2C [AZD7648] (first compound max 1 µM, 7x7, partner max 10 µM)", "TARGET_OR_SYSTEM": "SNU-1 (Gastric Carcinoma)", "VALUE_OBSERVED": -0.0408}
{"MOLECULE": "CN(CCO)CC[C@H](CSc1ccccc1)Nc1ccc(S(=O)(=O)NC(=O)c2ccc(N3CCC([C@@H](O)c4ccccc4-c4ccc(Cl)cc4)CC3)cc2)cc1S(=O)(=O)C(F)(F)F [AZD4320] + CCN(CCO)CCCOc1ccc2c(Nc3cc(CC(=O)Nc4cccc(F)c4)[nH]n3)ncnc2c1 [AZD2811] (first compound max 1 µM, 7x7, partner max 1 µM)", "TARGET_OR_SYSTEM": "SNU-1 (Gastric Carcinoma)", "VALUE_OBSERVED": 0.0461}
{"MOLECULE": "CC1(C)CCC(CN2CCN(c3ccc(C(=O)NS(=O)(=O)c4ccc(NCC5CCOCC5)c([N+](=O)[O-])c4)c(Oc4cnc5[nH]ccc5c4)c3)CC2)=C(c2ccc(Cl)cc2)C1 [Venetoclax] + COc1cc(Nc2ncc3c(n2)-c2ccc(Cl)cc2C(c2c(F)cccc2OC)=NC3)ccc1C(=O)O [Alisertib] (first compound max 1 µM, 7x7, partner max 10 µM)", "TARGET_OR_SYSTEM": "SNU-1 (Gastric Carcinoma)", "VALUE_OBSERVED": -0.0103}

Where do the numbers come from? From the supplement of paper PMC11061612.
